- Test system: Staph. aureus W2827
- Test Name: Human bacteria MIC
- Format: cell-based
- Condition Info: Staphylococcus aureus, nutrient agar with 5% chocolated horse blood, 18 hours at 37°C
- Experimental: The values were determined by serial dilutions in nutrient agar with 5% chocolated horse blood after incubations for 18 hours at 37 °C.
Each entry below lists one item and its recorded MIC value.

Compound	MIC [mg/L]
C/C(=C\C(=O)OC(C)c1ccc(C#N)cc1)CC1OCC(CC2OC2C(C)C(C)O)C(O)C1O (stereo not drawn) [Example 4, 1-(p-Cyanophenyl)ethyl monate A]	5
C/C(=C\C(=O)OCc1cccc(C#N)c1)CC1OCC(C/C=C/C(C)C(C)O)C(O)C1O (stereo not drawn) [Example 5, m-Cyanobenzyl monate C]	2.5
C/C(=C\C(=O)OCc1cccc(C#N)c1)CC1OCC(CC2OC2C(C)C(C)O)C(O)C1O (stereo not drawn) [Example 2, m-Cyanobenzyl monate A]	1
C/C(=C\C(=O)OCc1ccccc1C#N)CC1OCC(CC2OC2C(C)C(C)O)C(O)C1O (stereo not drawn) [Example 1, o-Cyanobenzyl monate A]	2.5
C/C(=C\C(=O)OCc1cc(C#N)cc(C#N)c1)CC1OCC(CC2OC2C(C)C(C)O)C(O)C1O (stereo not drawn) [Example 6, 3,5-Dicyanobenzyl monate A]	5
C/C(=C\C(=O)OCc1ccc(C#N)cc1)CC1OCC(CC2OC2C(C)C(C)O)C(O)C1O (stereo not drawn) [Example 3, p-Cyanobenzyl monate A]	0.5
